# half-life at 2 µM values compiled below
Test: Plasma stability (human plasma)
Settings: human, pooled plasma, pH 7.4
Method: The pooled frozen plasma was thawed in a water bath at 37° C. prior to experiment. Plasma was centrifuged at 4000 rpm for 5 min and the clots were removed if any. The pH will be adjusted to 7.4±0.1 if required. […]

Use these answered entries as a reference point.
{"compound": "C#C[C@]1(COC(=O)OCC23CC4CC(CC(C4)C2)C3)O[C@@H](n2cnc3c(N)nc(F)nc32)C[C@@H]1OC(=O)OCC12CC3CC(CC(C3)C1)C2 [Compound 23]", "half-life at 2 µM": "> 3.33 h"}
{"compound": "C#C[C@]1(COC(=O)OCCC23CC4CC(CC(C4)C2)C3)O[C@@H](n2cnc3c(N)nc(F)nc32)C[C@@H]1O [Compound 7]", "half-life at 2 µM": "< 0.833 h"}
{"compound": "C#C[C@]1(CO)O[C@@H](n2cnc3c(N)nc(F)nc32)C[C@@H]1OC(=O)OCCC12CC3CC(CC(C3)C1)C2 [Compound 8]", "half-life at 2 µM": "0.833 to 3.33 h"}
{"compound": "C#C[C@]1(COC(=O)CCC23CC4CC(CC(C4)C2)C3)O[C@@H](n2cnc3c(N)nc(F)nc32)C[C@@H]1O [Compound 14]", "half-life at 2 µM": "< 0.833 h"}
{"compound": "C#C[C@]1(COC(=O)OCCCCC23CC4CC(CC(C4)C2)C3)O[C@@H](n2cnc3c(N)nc(F)nc32)C[C@@H]1O [Compound 12]", "half-life at 2 µM": "< 0.833 h"}
{"compound": "C#C[C@@]12COC(=O)CCCCCOC(=O)O[C@H]1C[C@H](n1cnc3c(N)nc(F)nc31)O2 [Compound 17]", "half-life at 2 µM": "> 3.33 h"}

Q: Return reported half-life at 2 µM; argument: C#C[C@@]12COC(=O)OCCCCCC(=O)OC1C[C@H](n1cnc3c(N)nc(F)nc31)O2 (stereo in doubt) [Compound 29]
Result: < 0.833 h

Q: I would be grateful if you could share the reported half-life at 2 µM for C#C[C@]1(COC(=O)OCCCC23CC4CC(CC(C4)C2)C3)O[C@@H](n2cnc3c(N)nc(F)nc32)C[C@@H]1O [Compound 10] .
Result: < 0.833 h

Q: Which half-life at 2 µM reading was recorded for the compound C#C[C@]1(COC(=O)OC23CC4CC(CC(C4)C2)C3)O[C@@H](n2cnc3c(N)nc(F)nc32)C[C@@H]1OC(=O)OC12CC3CC(CC(C3)C1)C2 [Compound 6] ?
Result: > 3.33 h

====

Assay: Liver S9 stability (human liver S9)
Assay type: in vitro ADME
Conditions: human liver S9, 37° C.
Protocol: Add 600 μL/well stop solution (cold in 4° C., including 100 ng/mL Tolbutamide/100 ng/mL Labetalol) to terminate the TO plate, then put it on ice. Dispense 840 μL/well S9 solution to 96-well plate as reservoir according to plate map. Then add 100 μL/well to every plate by Apricot. Incubate S9 solution and compound at 37° C. for about 10 min except NCF60 and TO. After adding S9 solution and 98μ LPB buffer to NCF60, incubate at 37° C. without pre-warming, start timer 1. […]
# maps each entry to its half-life at 1 µM

For orientation, consider the following solved cases.
{"compound": "C#C[C@]1(COC(=O)OCCC23CC4CC(CC(C4)C2)C3)O[C@@H](n2cnc3c(N)nc(F)nc32)C[C@@H]1OC(=O)C(C)C", "half-life at 1 µM": "< 50 min"}
{"compound": "C#C[C@]1(COC(=O)OC23CC4CC(CC(C4)C2)C3)O[C@@H](n2cnc3c(N)nc(F)nc32)C[C@@H]1OC(=O)OCC", "half-life at 1 µM": "< 50 min"}
{"compound": "C#C[C@]1(COC(=O)OCCC23CC4CC(CC(C4)C2)C3)O[C@@H](n2cnc3c(N)nc(F)nc32)C[C@@H]1OC(=O)OCCC12CC3CC(CC(C3)C1)C2", "half-life at 1 µM": "< 50 min"}
{"compound": "C#C[C@]1(COC(=O)OCCCC23CC4CC(CC(C4)C2)C3)O[C@@H](n2cnc3c(N)nc(F)nc32)C[C@@H]1OC(=O)OCC", "half-life at 1 µM": "< 50 min"}

Next up:
Q: Query: half-life at 1 µM; subject: C#C[C@]1(COC(=O)OCCCCC23CC4CC(CC(C4)C2)C3)O[C@@H](n2cnc3c(N)nc(F)nc32)C[C@@H]1OC(=O)OCC
Result: < 50 min
